Assay: Pharmacokinetics and tissue distribution after single intravenous administration
Type: in vivo, mouse
Details: ICR, mouse, spleen, iv; mice, single i.v. 10 mg/kg; 0.5 h; read-out: Concentration of (+)3C-20, Spleen
reported.endpoint: concentration at 0.5 h (ng/g)

[[record]]
compound = "O=C(CCc1ccc(C(F)(F)F)cc1)O[C@@H]1C(=O)NCCc2c([nH]c3ccccc23)[C@H]1c1ccc(C(F)(F)F)cc1 [(+)3C-20]"
recorded_result = 1450


====

Assay: Pharmacokinetics and tissue distribution after single intravenous administration
Assay type: in vivo, mouse
Settings: ICR, mouse, brain, iv; mice, single i.v. 10 mg/kg; 6 h; read-out: Concentration of (+)3C-20, Brain
reported.endpoint: concentration at 6 h (ng/g)

[[record]]
compound = "O=C(CCc1ccc(C(F)(F)F)cc1)O[C@@H]1C(=O)NCCc2c([nH]c3ccccc23)[C@H]1c1ccc(C(F)(F)F)cc1 [(+)3C-20]"
reported_endpoint = "concentration at 6 h"
readout_unit = "ng/g"
recorded_result = 113


====

Assay: Pharmacokinetics and tissue distribution after single intravenous administration
Type: in vivo, mouse
Details: ICR, mouse, iv; mice, single i.v. 10 mg/kg; Plasma; read-out: VdSS
reported.endpoint: Vd (L/kg)

[[record]]
molecule = "O=C(CCc1ccc(C(F)(F)F)cc1)O[C@@H]1C(=O)NCCc2c([nH]c3ccccc23)[C@H]1c1ccc(C(F)(F)F)cc1 [(+)3C-20]"
reported_endpoint = "Vd"
readout_unit = "L/kg"
recorded_result = 6.1


====

Experiment: Pharmacokinetics and tissue distribution after single intravenous administration
Format: in vivo, mouse
Conditions: ICR, mouse, iv; mice, single i.v. 10 mg/kg; Lung; read-out: t1/2 (converted)
reported.endpoint: half-life (h)

[[record]]
compound = "O=C(CCc1ccc(C(F)(F)F)cc1)O[C@@H]1C(=O)NCCc2c([nH]c3ccccc23)[C@H]1c1ccc(C(F)(F)F)cc1 [(+)3C-20]"
readout_unit = "h"
recorded_result = 3.58


====

Test: Pharmacokinetics and tissue distribution after single intravenous administration
Type: in vivo, mouse
Settings: ICR, mouse, iv; mice, single i.v. 10 mg/kg; Lung
reported.endpoint: C0 (ng/mL)

[[record]]
molecule = "O=C(CCc1ccc(C(F)(F)F)cc1)O[C@@H]1C(=O)NCCc2c([nH]c3ccccc23)[C@H]1c1ccc(C(F)(F)F)cc1 [(+)3C-20]"
reported_endpoint = "C0"
recorded_result = 11700


====

Experiment: Pharmacokinetics and tissue distribution after single intravenous administration
Type: in vivo, mouse
Details: ICR, mouse, iv; mice, single i.v. 10 mg/kg; Lung
reported.endpoint: AUC(0-inf) (ng·h/mL)

[[record]]
compound = "O=C(CCc1ccc(C(F)(F)F)cc1)O[C@@H]1C(=O)NCCc2c([nH]c3ccccc23)[C@H]1c1ccc(C(F)(F)F)cc1 [(+)3C-20]"
readout_unit = "ng·h/mL"
recorded_result = 22200


====

Experiment: Pharmacokinetics and tissue distribution after single intravenous administration
Assay type: in vivo, mouse
Details: ICR, mouse, iv; mice, single i.v. 10 mg/kg; Spleen; read-out: Tissues/plasma ratio
Protocol: Pharmacokinetic studies were performed as previously described.^[ [63] ^] Briefly, ICR mice were fasted without water for 16 h before drug administration and allowed access to food and water freely after administration. […]
reported.endpoint: Kp

[[record]]
compound = "O=C(CCc1ccc(C(F)(F)F)cc1)O[C@@H]1C(=O)NCCc2c([nH]c3ccccc23)[C@H]1c1ccc(C(F)(F)F)cc1 [(+)3C-20]"
reported_endpoint = "Kp"
recorded_result = 2.24


Provenance of the data: paper PMC11672292
